test: clinical; details: human, in vivo
property.name: half-life

Dear colleague, I am looking for the recorded half-life of the following compound: CN1CCC(COc2cnc(-c3cccc(Cn4nc(-c5cccc(C#N)c5)ccc4=O)c3)nc2)CC1
~32 h
